Where do the numbers come from? From the supplement of paper PMC10567573.

B1: DYRK1B (parent)
chain: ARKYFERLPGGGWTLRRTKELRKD

variants of: B1; test: protein stability index of a GFP-peptide fusion (GPS, HEK-293T) (PSI 1-6); higher = more stable; settings: c terminus: a fixed tail appended;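 note: lentivirally expressed fusions sorted by FACS into six bins by GFP to DsRed ratio, PSI derived from sequencing read proportions per bin multiplied by bin number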
# binarize protein stability index: threshold 3 inclusive, high side true (1), low side false (0)

{"variant id": "E20S", "class assignment": "true (1)"}
{"variant id": "F5D", "class assignment": "true (1)"}
{"variant id": "K19I", "class assignment": "false (0)"}
{"variant id": "R17W", "class assignment": "false (0)"}
{"variant id": "P9C", "class assignment": "false (0)"}
{"variant id": "F5Y", "class assignment": "true (1)"}
{"variant id": "R7P", "class assignment": "true (1)"}
{"variant id": "A1Q", "class assignment": "true (1)"}
{"variant id": "R16H", "class assignment": "false (0)"}
{"variant id": "R16M", "class assignment": "false (0)"}
{"variant id": "A1V", "class assignment": "true (1)"}
{"variant id": "R22G", "class assignment": "true (1)"}
{"variant id": "R2S", "class assignment": "true (1)"}
{"variant id": "A1R", "class assignment": "true (1)"}
{"variant id": "G11F", "class assignment": "false (0)"}
{"variant id": "Y4A", "class assignment": "false (0)"}
{"variant id": "L15V", "class assignment": "true (1)"}
{"variant id": "W13C", "class assignment": "true (1)"}
{"variant id": "R17D", "class assignment": "true (1)"}
{"variant id": "K23V", "class assignment": "true (1)"}
{"variant id": "R22E", "class assignment": "true (1)"}
{"variant id": "R17I", "class assignment": "false (0)"}
{"variant id": "E6V", "class assignment": "true (1)"}
{"variant id": "K19M", "class assignment": "false (0)"}
{"variant id": "E20V", "class assignment": "true (1)"}
{"variant id": "K3S", "class assignment": "true (1)"}
{"variant id": "W13G", "class assignment": "true (1)"}
{"variant id": "D24W", "class assignment": "false (0)"}
{"variant id": "R2D", "class assignment": "true (1)"}
